experiment: qHTS RealTime-Glo MT Cell Viability Assay in HepG2 cells - 40 hour (AID 1224870); conditions: RealTime-Glo luminescence; series mostly up to 76.8 µM; note: nearly all actives have a fitted effect of over 50% in size
Results filed as inconclusive are left out. The source made the active and inactive calls. Calls come from the whole dose curve; as a rule, active = well fitted cell-killing curve with a large enough effect in the repeat runs; inconclusive = weak or mixed curves, or effect the other way; inactive = flat fitted curve, though single readings scatter.
Returns: one label drawn from active, inactive

// known answers, use as guide
{"columns": ["COMPOUND", "CATEGORY"],
 "data": [
  ["CCOC(=O)[C@]1(c2ccccc2)Oc2ccccc2[C@@H]1N", "inactive"],
  ["C[N+](C)(C)CCCl", "inactive"]
]}

Moving on to another compound below.
# input How was CCC(C)(NC(=O)c1cc(Cl)c(C)c(Cl)c1)C(=O)CCl (stereo not drawn) classified in this test?
# output active

Values were extracted from PubChem BioAssay (Tox21).
